# testSystem: Asp-2 (Homo sapiens, UniProt P56817)
# Sequence (P56817 46-501): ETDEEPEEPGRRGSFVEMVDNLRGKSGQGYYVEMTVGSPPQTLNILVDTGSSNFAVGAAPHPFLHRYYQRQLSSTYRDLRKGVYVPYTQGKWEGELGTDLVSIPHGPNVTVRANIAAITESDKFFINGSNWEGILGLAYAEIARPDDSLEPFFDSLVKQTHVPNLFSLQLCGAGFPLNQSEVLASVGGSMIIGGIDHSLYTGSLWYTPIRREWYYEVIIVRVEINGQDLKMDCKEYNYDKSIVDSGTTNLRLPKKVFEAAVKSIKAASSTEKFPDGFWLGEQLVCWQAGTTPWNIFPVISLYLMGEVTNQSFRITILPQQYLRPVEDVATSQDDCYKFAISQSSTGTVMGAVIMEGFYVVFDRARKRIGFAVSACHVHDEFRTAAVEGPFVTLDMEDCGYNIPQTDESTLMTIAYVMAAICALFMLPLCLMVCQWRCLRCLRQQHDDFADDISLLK
# assay: Asp-2 Inhibitory Assay
# Type: biochemical
# conditionDescription: inhibition (Asp-2), Assay (I), FAM-SEVNLDAEFK-TAMRA substrate, pH 4.5
readoutLabel: IC50

For Asp-2 (Homo sapiens, UniProt P56817), provide IC50 of `CCNc1cc(C(=O)N[C@@H](Cc2ccccc2)[C@H](O)CNCc2cccc(OC(F)(F)F)c2)cc(N2CCCC2=O)c1` please.
1 to 50 nM
